Target: T1, natriuretic peptide receptor-B (human)
T1 chain: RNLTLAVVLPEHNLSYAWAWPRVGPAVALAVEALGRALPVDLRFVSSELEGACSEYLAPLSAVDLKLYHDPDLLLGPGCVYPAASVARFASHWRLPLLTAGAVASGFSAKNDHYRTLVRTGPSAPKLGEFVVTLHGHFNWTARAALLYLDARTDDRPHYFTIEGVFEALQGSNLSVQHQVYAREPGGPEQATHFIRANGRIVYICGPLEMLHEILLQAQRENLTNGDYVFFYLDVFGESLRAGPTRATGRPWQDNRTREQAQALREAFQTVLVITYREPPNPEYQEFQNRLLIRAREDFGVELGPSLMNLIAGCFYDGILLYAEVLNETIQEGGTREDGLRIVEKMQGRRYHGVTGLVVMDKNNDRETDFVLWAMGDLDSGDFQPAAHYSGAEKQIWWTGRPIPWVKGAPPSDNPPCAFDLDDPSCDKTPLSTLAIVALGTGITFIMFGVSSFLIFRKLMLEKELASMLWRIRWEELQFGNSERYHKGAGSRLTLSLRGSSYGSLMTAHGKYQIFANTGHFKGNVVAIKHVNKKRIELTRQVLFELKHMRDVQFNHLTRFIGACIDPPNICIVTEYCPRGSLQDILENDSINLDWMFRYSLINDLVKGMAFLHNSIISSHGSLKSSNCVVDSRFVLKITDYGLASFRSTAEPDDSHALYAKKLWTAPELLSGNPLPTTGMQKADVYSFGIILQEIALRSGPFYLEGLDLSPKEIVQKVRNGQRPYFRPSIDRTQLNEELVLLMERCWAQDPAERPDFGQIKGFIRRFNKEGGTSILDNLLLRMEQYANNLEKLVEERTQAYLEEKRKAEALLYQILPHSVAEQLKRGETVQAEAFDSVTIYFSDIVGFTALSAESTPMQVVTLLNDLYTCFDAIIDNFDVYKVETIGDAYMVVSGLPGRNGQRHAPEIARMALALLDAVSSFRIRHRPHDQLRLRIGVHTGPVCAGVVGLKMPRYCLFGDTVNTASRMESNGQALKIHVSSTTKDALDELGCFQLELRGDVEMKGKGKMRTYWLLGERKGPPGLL
Assay: cell-based or functional assay
Numbered stars: 1 amine (or outer) side, 2 acyl side, 3 side chain; on linkers, the order of the positions; unused ones are H or OH. Square brackets hold non-standard residues; d marks the D form. Ends that are not written are not given here. * marks the point of attachment. Pro(trans-4-guanidino) = N=C(N)N[C@H]1CN[C@H](C(=O)O)C1; Sni = (S)-nipecotic acid, O=C([C@H]1CCCN([*:1])C1)[*:2]; Propanoyl(3-cHex) = O=C(CCC1CCCCC1)*; Hyp = O=C(O)[C@@H]1C[C@@H](O)CN1; hPhe = N[C@@H](CCc1ccccc1)C(=O)O; NMeL = CN[C@@H](CC(C)C)C(=O)O; Octanoyl = CCCCCCCC(=O)*; Occ = octanoic acid
EC50 group, cGMP in GTM-3 cells values by entry

These recorded examples may help you get a feel for the data.
Exercise: Name the reported EC50 group, cGMP in GTM-3 cells value associated with the binder Octanoyl-[dA]F[dL]L[Pro(trans-4-guanidino)]LDRI-NH2 [JAL-1272]
Solution: ≤ 5 µM

Exercise: So what's the measured EC50 group, cGMP in GTM-3 cells for this one? {Propanoyl(3-cHex)}-[dA][dA]FGLKLDRI-NH2 [JAL-0703]
Solution: ≤ 15 µM

Alright, here's another binder for you.
Exercise: I am curious: what EC50 group, cGMP in GTM-3 cells value has been reported for [Occ][Sni][hPhe]LL[Hyp][NMeL]DRI-NH2 (not fully specified (residue 4); printed as Occ-Sni-Hfe-leu-Leu-Hyp-Nml-Asp-Arg-Ile-) [JAL-1701] ?
Solution: ≤ 15 µM
